Taken from patent US20110053865A1.

TARGET: T1, recombinant human IL-12 (human, UniProt P29459 23-219; P29460 23-328)
T1 construct: Bought (R&D Systems); also called hIL-12
T1 sequence (looked up) 1: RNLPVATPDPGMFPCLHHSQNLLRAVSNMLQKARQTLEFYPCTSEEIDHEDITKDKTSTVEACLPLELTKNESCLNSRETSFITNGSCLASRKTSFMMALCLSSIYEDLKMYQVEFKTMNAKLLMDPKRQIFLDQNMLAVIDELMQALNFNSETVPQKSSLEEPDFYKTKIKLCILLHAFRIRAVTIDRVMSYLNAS
T1 sequence (looked up) 2: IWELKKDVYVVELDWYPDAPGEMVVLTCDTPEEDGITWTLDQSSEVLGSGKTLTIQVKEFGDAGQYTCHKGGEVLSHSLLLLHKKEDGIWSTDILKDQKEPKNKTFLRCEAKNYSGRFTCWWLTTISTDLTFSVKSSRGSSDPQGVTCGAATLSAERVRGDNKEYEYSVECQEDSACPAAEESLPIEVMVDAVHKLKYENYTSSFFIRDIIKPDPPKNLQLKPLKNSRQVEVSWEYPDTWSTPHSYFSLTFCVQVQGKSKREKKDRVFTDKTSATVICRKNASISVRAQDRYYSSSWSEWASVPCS
TEST: alpha-screen, hIL-12/IL12Rbeta1-Fc
OUTCOME_MEASURE: IC50 (nM)

P. P23IL 21C4 (VHH, p40+ Nanobody; c-myc, His6-tagged) VHH: EVQLVESGGGLVQAGGSLRLSCAASGRTFSGYDMGWFRQAPGKEREFVAQISRHNSNTYYADAVKGRFTISRDNAKNTVSLQMNSLKPEDTAVYYCAIGSLFPSSRERDYDYWGQGTQVTVSS
Q. P23IL3B8 (VHH, p40+ Nanobody; c-myc, His6-tagged) VHH: EVQLVESGGGLVQPGGSLRLSCAASGFTFSSSVMFWLRQAPGKGLEWLSTIKPTGSTIYPGSGKGRFTISRDNAKNTLYLQINNLKPEDTALYYCARDIGGTVRGQGTQVTVSS
stdin: Hello, I am sorting some records. Could you say if P or Q has the smaller IC50 value? Let me know the label of the one you choose.
stdout: Q
(Q: 0.35 nM, P: 1.63 nM)
